- Tested on: Polyunsaturated fatty acid 5-lipoxygenase (Cavia porcellus)
- Assay overview: Inhibitory activity against partially-purified Guinea pig PMN 5-lipoxygenase
Measured metric: pIC50
Numbers only, as −log10 of the molar value.

Record Cc1ccnc(N2CCN(CCc3c(C)n4c5c(cc(O)cc35)CCC4)CC2)c1 , field pIC50: 5.55
